Experiment: protein stability index of a GFP-peptide fusion (yeast GPS) (PSI 1-4); higher = more stable; sorted into four equal gates, so the index is relative within each strain
Details: san1∆
Consider the following sequences and their measured protein stability index readings.

Worked examples, 6 sequences total:
>  <macromolecule-sequence>
VDQGQIYRDRSTFTKHL [ITC1]

>  <protein stability index>
3.15

$$$$
>  <macromolecule-sequence>
NKSISDEITEDMFEMSD [SSN2]

>  <protein stability index>
2.82

$$$$
>  <macromolecule-sequence>
IMKFQSLSDNDLAVCAT [ECM29]

>  <protein stability index>
2.69

$$$$
>  <macromolecule-sequence>
VSSSLYERRFGPYFVGP [PUP3]

>  <protein stability index>
2.62

$$$$
>  <macromolecule-sequence>
SKQPNSAIRKCVRVQLI [RPS23A]

>  <protein stability index>
1.79

$$$$
>  <macromolecule-sequence>
LFKYQGHIGAYLIVAGV [PUP1]

>  <protein stability index>
1.39

$$$$

*Q* Using the record for KSIENPTQTKGNDAKPA [YLR335W/NUP2] , state its measured protein stability index.
*A* 3.23
